Entries and their pIC50 values follow.
target: DRB5*0101 (Homo sapiens, UniProt P01903+Q30154); test: biochemical; conditions: Binding affinity DRB5 *0101
pIC50: −log10 of the molar value. No end group written: not given here.

residues="RVCLLFYSKVRKYRY [Peptide 1543.54]" measured_metric=pIC50 observed_measurement=5.41

Prompt: Field request: pIC50 | item: NSIFDFGEMVQWAYD [Peptide 89.0106]
Completion: < 4.70

Prompt: Also check LLQLKCPPILLTSNI [Peptide 89.0091]
Completion: < 4.70

Prompt: Also check RNTFLDVVTIPNSVQ [Peptide 1601.39]
Completion: < 4.70

Prompt: Also check RLTVSKLMSQLLNIP [Peptide 89.0100]
Completion: < 4.70

Prompt: Also check KHIRLLECVLMYKARE [Peptide 1601.44]
Completion: 5.79

Prompt: Also check SWGMVVLLLVRYKCG [Peptide 89.0005]
Completion: < 4.70

====

target: HLA-A1 (A*0101) (Homo sapiens, UniProt P04439, A114D/A174V/A182V/D101N/D185E/E176A/E190D/L180R/Q94H/R68K/S129P/T187R/V100A/V91M/W191G); assay: biochemical; assay type: binding
No end group written: not given here.
Entries and their pIC50 values follow.
# pIC50 is unitless: minus log10 of the molar concentration; print number only

# example entries with known answers
residues="STEWRQRRY [Peptide 9018.0017]" observed_measurement=8.15
residues="NTPPLVKLWY [Peptide 9015.0170]" observed_measurement=4.73

Prompt: Field request: pIC50 | item: LTQRNPQLCY [Peptide 9012.0151]
Completion: 8.16

Prompt: Also check ITSKASEY [Peptide 9012.0108]
Completion: 5.48

====

biological target: A*3301 (Homo sapiens, UniProt P04439, A270S/D185E/E176V/E277Q/E87N/F33T/G231S/H175R/I121M/I218V/I322F/K168Q/K210R/L300P/L318F/M331R/P217A/Q86R/Q94H/R138Q/T323A/T345S/T97I/V358M/Y195H); test: biochemical; type: binding
No end group written: not given here.
Measured Metric: IC50

# example entries with known answers
residues="VFCGPANTGK [Peptide 88.0150]" measured_metric=IC50 observed_measurement="0.811 µM"
residues="TILWKDIFHR [Peptide 9012.0223]" measured_metric=IC50 observed_measurement="0.011 µM"
residues="KTLLQPYCLY [Peptide 88.0153]" measured_metric=IC50 observed_measurement="19.6 µM"
residues="WFYVQAIVDK [Peptide 88.0140]" measured_metric=IC50 observed_measurement="> 20 µM"
residues="TLWNPPTTAK [Peptide 1556.04]" measured_metric=IC50 observed_measurement="2.24 µM"
residues="SQWIKYRCSK [Peptide 88.0174]" measured_metric=IC50 observed_measurement="3.4 µM"
residues="KLNWASQIY [Peptide 1595.09]" measured_metric=IC50 observed_measurement="> 20 µM"
residues="GTRQARKNR [Peptide 9017.0071]" measured_metric=IC50 observed_measurement="5.07 µM"

Let us move to another entry and its IC50.
Prompt: Field request: IC50 | item: ITIEKLLEK [Peptide 1587.31]
Completion: 11 µM

====

target: DR7 (DRB1*0701) (Homo sapiens, UniProt P01903+P01911, A100R/A102G/A103Q/D57E/D86V/E43K/F76Y/K127E/L162R/M171V/P40G/Q125H/Q99D/R33Q/R42Y/R54Q/S133A/S66F/T210M/V115G/Y107V/Y59L/Y89S); test: biochemical; format: binding
No end group written: not given here.
Measured Metric: pIC50
# pIC50 is unitless: minus log10 of the molar concentration; print number only

# example entries with known answers
residues="TPEWIQRLTIIQHGI [Peptide 89.0030]" observed_measurement=6.81
residues="ILLYGAANTGKSLFG [Peptide 89.0018]" observed_measurement=5.21
residues="VMFLRYQGVEFMSFL [Peptide 89.0014]" observed_measurement=5.59

Prompt: Field request: pIC50 | item: EDLRTLQQLFLSTLS [Peptide 1543.21]
Completion: 6.41

Prompt: Also check KHIRLLECVLMYKARE [Peptide 1601.44]
Completion: 5.17

====

target: B*5401 (Homo sapiens, UniProt P01889, A329T/C349S/D138N/D201E/E176V/E187T/E204Q/E69G/I76V/K202T/L119W/R155S/R180L/S121T/S35A/S48A/V127L/V306I/V36M/Y140L); assay: biochemical
No end group written: not given here.
Measured Metric: log10 IC50 (log10 of the value in nM)
// do not treat as linear: log10 of IC50, unit nM

residues="IPYSPLSPKV [15.347]" observed_measurement=2.86
residues="DPSHITAETA [16.183]" observed_measurement=3.41
residues="TPTLAARNA [16.018]" observed_measurement=3.76
residues=FPVRPQVPI observed_measurement=0.20
residues="IPAETGQETA [16.195]" observed_measurement=2.77
residues="VPGAATPYA [16.175]" observed_measurement=3.76

Prompt: Field request: log10 IC50 | item: EPAADGVGA [16.020]
Completion: 4.11

Prompt: Also check FPVRPQFPL
Completion: 2.38

Prompt: Also check SPEVIPMFSA [16.192]
Completion: 3.75

====

target: A*3301 (Homo sapiens, UniProt P04439, A270S/D185E/E176V/E277Q/E87N/F33T/G231S/H175R/I121M/I218V/I322F/K168Q/K210R/L300P/L318F/M331R/P217A/Q86R/Q94H/R138Q/T323A/T345S/T97I/V358M/Y195H); assay: biochemical; assay type: binding
No end group written: not given here.
Measured Metric: pIC50
# pIC50 is unitless: minus log10 of the molar concentration; print number only

residues="NTNAGTDPR [Peptide 88.0372]" measured_metric=pIC50 observed_measurement=6.38
residues="RQLKETELRK [Peptide 9012.0249]" measured_metric=pIC50 observed_measurement=4.90
residues="VTVYYGVPVRR [Peptide 1525.07]" measured_metric=pIC50 observed_measurement=6.10
residues="HLFWYSWYK [Peptide 76.0168]" measured_metric=pIC50 observed_measurement=7.41
residues="VSIEWRKRR [Peptide 9017.0090]" measured_metric=pIC50 observed_measurement=7.24

Prompt: Field request: pIC50 | item: AIVVWTIAY [Peptide 9017.0115]
Completion: 5.28

====

target: A*6801 (Homo sapiens, UniProt P04439, A269V/D185E/E176V/E277Q/E87N/F33Y/G231S/I121M/I166T/I218V/L180W/L300P/L318F/N151K/P208A/P217A/Q86R/R169H/T345S); assay: biochemical; format: binding
No end group written: not given here.
Criterion: IC50 strictly less than 200 nM. Met: Y. Not met: N.

residues="EFTAFLDAFK [Peptide 88.0179]" discrete_label=Y

Prompt: IC50 strictly < 200 nM for this sequence? LLYGPANTGK [Peptide 1587.56]
Completion: Y

Prompt: Also check WTIVYIEYRK [Peptide 9017.0243]
Completion: Y

Prompt: Also check RTEVYQFAFK [Peptide 78.0062]
Completion: N

Prompt: Also check VSIEWRLRR [Peptide 9017.0088]
Completion: Y

Prompt: Also check VVPAYNISK [Peptide 88.0397]
Completion: N

====

molecular target: DR4w4 (DRB1*0401) (Homo sapiens, UniProt P01903+P01911, A100K/A169T/F76Y/I96L/K127E/L162R/M171V/N62H/P40V/Q125Y/R42H/S133A/S149N/S66Y/V115G/V209L/W38E); experiment: biochemical; format: binding; details: read-out: DRB1*0401
No end group written: not given here.
Measured Metric: log10 IC50 (log10 of the value in nM)
// do not treat as linear: log10 of IC50, unit nM

# example entries with known answers
substance="702.17 (AYAAAKA; also: non-natural residues (20)) [Peptide 702.17]" observed_measurement=2.40
substance="820.01 (YARSQTTLKAKT; also: non-natural residue (15A)) [Peptide 820.01]" observed_measurement=-0.11

Let us move to another entry and its log10 IC50.
Prompt: Field request: log10 IC50 | item: 782.03 (YARSQTTLKAKT; also: non-natural residue (15)) [Peptide 782.03]
Completion: -0.34

====

target: DRB1*1501 (Homo sapiens, UniProt P01903+P01911); test: biochemical; assay type: binding
pIC50: −log10 of the molar value. No end group written: not given here.
# pIC50 >= 6 gives Satisfied, anything below gives Not satisfied

residues="RNTFLDVVTIPNSVQ [Peptide 1601.39]" discrete_label="Not satisfied"
residues="WKLIRMECAIMYTAR [Peptide 90.0245]" discrete_label="Not satisfied"
residues="TTPIIHKLGDRNSLK [Peptide 1601.17]" discrete_label=Satisfied
residues="FKKFLKGIPKKSCML [Peptide 89.0073]" discrete_label=Satisfied
residues="TGWFEVEAVIERRTG [Peptide 90.0075]" discrete_label="Not satisfied"
residues="YFKYFKEDAKKYSKT [Peptide 90.0253]" discrete_label="Not satisfied"
residues="GVYYIKDGDTTYYVQ [Peptide 90.0216]" discrete_label="Not satisfied"
residues="HQVVPSLVASKTKAF [Peptide 90.0023]" discrete_label="Not satisfied"

Prompt: In plain terms: is recorded pIC50 at least 6 for WQLIRLENAILFTAR [Peptide 90.0211] ?
Completion: Satisfied

Prompt: Also check TVTFVTEQQQQMFLG [Peptide 90.0210]
Completion: Not satisfied

Prompt: Also check ITHIGHQVVPPMAVS [Peptide 90.0010]
Completion: Not satisfied
